# Test system: Molm-13 cells
# METHOD_DESCRIPTION: Leukemia cell proliferation inhibition test (ATPlite), Molm-13
# Type: cell-based
# EXPERIMENTAL_SETUP: Molm-13, 72 hours culture, ATPlite; GI50 per method; read-out: MOLM13 cell proliferation inhibition effect
QUANTITY_KIND: IC50

Q: Given the entry CCCNc1nc(Nc2ccc(C(N)=O)cc2)ncc1C(=O)N[C@H]1CCC[C@H](Nc2ccccc2NC(=O)/C=C/CN(C)C)C1 [Compound 3-27] , report its measured IC50.
Result: 10 to 100 nM

Q: Next up: CCCNc1nc(Nc2cccc(F)c2)ncc1C#CCCCNC(=O)[C@@H]1CCCN1C(=O)/C=C/CN(C)C [Compound 8-15]
Result: 100 to 1000 nM

Q: Next up: CCCNc1nc(Nc2cccc(F)c2)ncc1C#CCCCNC(=O)[C@@H]1CCCN1C(=O)/C=C/CN(C)C [Compound 7-45]
Result: < 10 nM

Q: Next up: CCCNc1nc(Nc2ccc(C(N)=O)cc2)ncc1C(=O)N[C@@H]1CCC[C@H](Nc2ccccc2NC(=O)/C=C/CN(C)C)C1 [Compound 3-28]
Result: 100 to 1000 nM

// next item, IC50 requested
Q: Given the entry CCCNc1nc(Nc2ccc(C(N)=O)cc2)ncc1C#Cc1cccc(NC(=O)[C@H](C)N(C)C(=O)/C=C/CN(C)C)c1 [Compound 8-14] , report its measured IC50.
Result: 10 to 100 nM
